target: activated human blood coagulation factor X (Homo sapiens, UniProt P00742); construct: purchased Enzyme Research Co; assay: Determination of activity of inhibiting the activated blood coagulation factor X; type: biochemical; conditions: Table 1; negative logarithm of concentration inhibiting 50% of initial rate; Tris-HCl pH 8.4, room temperature; read-out: Activity of inhibiting activated blood coagulation factor X (pIC50) (converted)
Sequence (P00742 235-488 limits assumed): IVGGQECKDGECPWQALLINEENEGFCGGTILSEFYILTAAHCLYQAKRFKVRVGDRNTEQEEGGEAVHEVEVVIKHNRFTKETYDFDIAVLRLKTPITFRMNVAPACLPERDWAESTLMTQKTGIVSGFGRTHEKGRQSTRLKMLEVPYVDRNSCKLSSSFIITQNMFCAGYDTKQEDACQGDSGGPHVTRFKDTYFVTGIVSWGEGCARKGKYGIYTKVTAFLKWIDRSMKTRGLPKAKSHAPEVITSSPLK
Sequence (P00742 41-179 partner limits assumed): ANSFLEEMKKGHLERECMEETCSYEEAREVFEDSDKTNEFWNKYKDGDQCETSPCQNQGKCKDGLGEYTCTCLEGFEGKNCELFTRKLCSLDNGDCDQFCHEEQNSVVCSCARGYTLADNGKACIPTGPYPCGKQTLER
Structures can show the parent of a compound that is named as a salt.

[
  {
    "compound": "N=C(N)c1ccc(CC(=O)C(=O)O)c(OCCNC(=O)c2ccc(N3CCCC3)cc2)c1 [Compound of Ex. 82, trifluoroacetate]",
    "assayed-target": "activated human blood coagulation factor X (Homo sapiens, UniProt P00742)",
    "IC50": "25.1 nM"
  },
  {
    "compound": "CN(C)C(=O)c1ccc(C(=O)NCCOc2cccc(C(=N)N)c2)cc1 [Compound of Ex. 3, trifluoroacetate]",
    "assayed-target": "activated human blood coagulation factor X (Homo sapiens, UniProt P00742)",
    "IC50": "25.1 nM"
  },
  {
    "compound": "N=C(N)c1cccc(OC[C@@H](CC(=O)O)NC(=O)c2ccc(N3CCCC3)cc2)c1 [Compound of Ex. 58, trifluoroacetate]",
    "assayed-target": "activated human blood coagulation factor X (Homo sapiens, UniProt P00742)",
    "IC50": "25.1 nM"
  },
  {
    "compound": "N=C(N)c1ccc(C(=O)N[C@@H](COc2cccc(C(=N)N)c2)Cc2ccc(C(=O)O)cc2)cc1 [Compound of Ex. 90, bistrifluoroacetate]",
    "assayed-target": "activated human blood coagulation factor X (Homo sapiens, UniProt P00742)",
    "IC50": "39.8 nM"
  },
  {
    "compound": "CN(C)C(=O)c1ccc(C(=O)CCCOc2cccc(C(=N)N)c2)cc1 [Compound of Ex. 64, trifluoroacetate]",
    "assayed-target": "activated human blood coagulation factor X (Homo sapiens, UniProt P00742)",
    "IC50": "63.1 nM"
  },
  {
    "compound": "N=C(N)c1ccc(NC(=O)CCCOc2cccc(C(=N)N)c2)cc1 [Compound of Ex. 67, bistrifluoroacetate]",
    "assayed-target": "activated human blood coagulation factor X (Homo sapiens, UniProt P00742)",
    "IC50": "316 nM"
  },
  {
    "compound": "N=C(N)Nc1ccc(C(=O)N[C@@H](COc2cccc(C(=N)N)c2)CC(=O)O)cc1 [Compound of Ex. 57, bistrifluoroacetate]",
    "assayed-target": "activated human blood coagulation factor X (Homo sapiens, UniProt P00742)",
    "IC50": "12.6 nM"
  },
  {
    "compound": "CCOC(=O)C[C@H](COc1cccc(C(=N)N)c1)NC(=O)c1ccc(N2CCCC2)cc1 [Compound of Ex. 59, trifluoroacetate]",
    "assayed-target": "activated human blood coagulation factor X (Homo sapiens, UniProt P00742)",
    "IC50": "39.8 nM"
  },
  {
    "compound": "N=C(N)c1ccc(CC(=O)C(=O)O)c(OCCNC(=O)c2ccc(CC3CCNCC3)cc2)c1 [Compound of Ex. 81, bistrifluoroacetate]",
    "assayed-target": "activated human blood coagulation factor X (Homo sapiens, UniProt P00742)",
    "IC50": "79.4 nM"
  },
  {
    "compound": "CC(=N)N1CCC(Oc2ccc(C(=O)NCCOc3cc(C(=N)N)ccc3CC(=O)C(=O)O)cc2)CC1 [Compound of Ex. 79, bistrifluoroacetate]",
    "assayed-target": "activated human blood coagulation factor X (Homo sapiens, UniProt P00742)",
    "IC50": "20 nM"
  },
  {
    "compound": "N=C(N)c1ccc(C(=O)N[C@H](CCOc2cccc(C(=N)N)c2)C(=O)O)cc1 [Compound of Ex. 92, bistrifluoroacetate]",
    "assayed-target": "activated human blood coagulation factor X (Homo sapiens, UniProt P00742)",
    "IC50": "50.1 nM"
  }
]
